Each recorded value in this set is attributed to ChEMBL document CHEMBL5303573.

Test: The drug is tested on Clostridium symbiosum strain: ATCC14940 for biotransformation. The drug concentrations were measured before and after a 12-h incubation by liquid-chromatography-coupled mass spectrometry (LC–MS)
Conditions: 2 µM

Molecule | Bacterial Biotransformation
CCC(COC(=O)c1cc(OC)c(OC)c(OC)c1)(c1ccccc1)N(C)C.O=C(O)/C=C\C(=O)O (configuration not stated) | Compound metabolized
Cc1cn([C@H]2C[C@H](N=[N+]=[N-])[C@@H](CO)O2)c(=O)[nH]c1=O | Compound NOT metabolized
CN(C)CCOC(C)(c1ccccc1)c1ccccn1.O=C(O)CCC(=O)O (configuration not stated) [DOXYLAMINE SUCCINATE] | Compound NOT metabolized
COc1cc2nc(N3CCN(C(=O)C4CCCO4)CC3)nc(N)c2cc1OC (configuration not stated) | Compound NOT metabolized
CS(=O)(=O)O.OC(CCN1CCCCC1)(c1ccccc1)c1ccccc1 [PRIDINOL METHANESULFONATE] | Compound NOT metabolized
CCC(=O)NCC[C@@H]1CCc2ccc3c(c21)CCO3 | Compound NOT metabolized
Br.CN(C)CCCC1(c2ccc(F)cc2)OCc2cc(C#N)ccc21 (configuration not stated) [CITALOPRAM HYDROBROMIDE] | Compound NOT metabolized
CCc1nn(CCCN2CCN(c3cccc(Cl)c3)CC2)c(=O)n1CCOc1ccccc1 | Compound NOT metabolized
CC(C)NCC(O)COc1ccc(CCOCC2CC2)cc1 (configuration not stated) | Compound NOT metabolized
CC(C)(C)N.CCC[C@H](N[C@@H](C)C(=O)N1[C@H](C(=O)O)C[C@@H]2CCCC[C@@H]21)C(=O)OCC | Compound NOT metabolized
CCOC(=O)[C@H](CCc1ccccc1)N[C@@H](C)C(=O)N1CCC[C@H]1C(=O)O.O=C(O)/C=C\C(=O)O [ENALAPRIL MALEATE] | Compound NOT metabolized
CC(=O)OCC(=O)NCCCOc1cccc(CN2CCCCC2)c1 [ROXATIDINE ACETATE] | Compound NOT metabolized
OC(Cn1cncn1)(Cn1cncn1)c1ccc(F)cc1F | Compound metabolized
CCCc1nc(C(C)(C)O)c(C(=O)OCc2oc(=O)oc2C)n1Cc1ccc(-c2ccccc2-c2nnn[nH]2)cc1 | Compound metabolized
O=C(CCCN1CCC(O)(c2ccc(Cl)cc2)CC1)c1ccc(F)cc1 | Compound NOT metabolized
CS(=O)(=O)O.O.O.O.O=C1Cc2cc(CCN3CCN(c4nsc5ccccc45)CC3)c(Cl)cc2N1 [ZIPRASIDONE MESYLATE] | Compound NOT metabolized
OCCOCCN1CCN(C2=Nc3ccccc3Sc3ccccc32)CC1 | Compound NOT metabolized

====

Experiment: The drug is tested on Bacteroides dorei strain: DSM17855 for biotransformation. The drug concentrations were measured before and after a 12-h incubation by liquid-chromatography-coupled mass spectrometry (LC–MS)
Conditions: phocaeicola dorei, 2 µM
Measurement name: Bacterial Biotransformation

Molecule | Measurement name | Test result
CC1Cc2ccccc2N1NC(=O)c1ccc(Cl)c(S(N)(=O)=O)c1 (stereo not drawn) [INDAPAMIDE] | Bacterial Biotransformation | Compound NOT metabolized
CN1C(=O)CC(C)(c2ccccc2)C1=O (stereo not drawn) [METHSUXIMIDE] | Bacterial Biotransformation | Compound metabolized
Cc1cn([C@H]2C[C@H](N=[N+]=[N-])[C@@H](CO)O2)c(=O)[nH]c1=O [ZIDOVUDINE] | Bacterial Biotransformation | Compound metabolized
CC(C)c1c(CN(C)C(C)Cc2ccccc2)n(C)n(-c2ccccc2)c1=O (stereo not drawn) [FAMPROFAZONE] | Bacterial Biotransformation | Compound metabolized
COc1ccc([C@@H]2Sc3ccccc3N(CCN(C)C)C(=O)[C@@H]2OC(C)=O)cc1 [DILTIAZEM] | Bacterial Biotransformation | Compound metabolized
C[C@@H]1C[C@H]2[C@@H]3CCC4=CC(=O)C=C[C@]4(C)[C@@]3(F)[C@@H](O)C[C@]2(C)[C@@]1(O)C(=O)CO [DEXAMETHASONE] | Bacterial Biotransformation | Compound metabolized
COC(=O)C1=C(C)NC(C)=C(C(=O)OC(C)C)C1c1cccc2nonc12 (stereo not drawn) [ISRADIPINE] | Bacterial Biotransformation | Compound NOT metabolized
Nc1nnc(-c2cccc(Cl)c2Cl)c(N)n1 [LAMOTRIGINE] | Bacterial Biotransformation | Compound NOT metabolized
